# measurementNotes: in vivo
# experimentalParameters: rat, po
measurementName: LD50

Sample COc1ccc2c(c1)c(CC(=O)O)c(C)n2C(=O)c1ccc(Cl)cc1 — what was its LD50?
20 to 30 mg/kg

---

The compounds listed here are annotated with their LD50.
# measurementNotes: in vivo
# experimentalParameters: mouse, sc

Study these solved cases before continuing.
smilesRecord | assayValue
CN(C)CCNC(=N)c1sc2ccccc2c1O | > 800 mg/kg
N=C(NCCN1CCOCC1)c1sc2ccccc2c1O | ~1000 mg/kg

Which value of LD50 has been reported for CCN(CC)CCNC(=N)c1sc2ccccc2c1O in the records?
~1000 mg/kg

Report LD50 for N=C(NCCN1CCCC1)c1sc2ccccc2c1O please.
~600 mg/kg

---

# measurementNotes: in vivo
# experimentalParameters: mouse, po
Measured LD50 accompanies every entry in the list below.

Study these solved cases before continuing.
smilesRecord | measurementName | assayValue
CN(C)CCNC(=N)c1sc2ccccc2c1O | LD50 | > 1600 mg/kg
CCN(CC)CCNC(=N)c1sc2ccccc2c1O | LD50 | ~1000 mg/kg
COC(=N)c1sc2ccccc2c1O | LD50 | > 1600 mg/kg
COc1ccc2c(c1)c(CC(=O)O)c(C)n2C(=O)c1ccc(Cl)cc1 | LD50 | < 10 mg/kg
CCOCCCNC(=N)c1sc2ccccc2c1O | LD50 | ~1600 mg/kg
CCOCCOC(=N)c1sc2ccccc2c1O | LD50 | > 1600 mg/kg

In the following, a different compound is considered.
// LD50 lookup, key: COCCOC(=N)c1sc2ccccc2c1O
~1600 mg/kg
